# assayed system: Induced myeloid leukemia cell differentiation protein Mcl-1 (Homo sapiens, UniProt Q07820)
# Sequence (Q07820 whole entry): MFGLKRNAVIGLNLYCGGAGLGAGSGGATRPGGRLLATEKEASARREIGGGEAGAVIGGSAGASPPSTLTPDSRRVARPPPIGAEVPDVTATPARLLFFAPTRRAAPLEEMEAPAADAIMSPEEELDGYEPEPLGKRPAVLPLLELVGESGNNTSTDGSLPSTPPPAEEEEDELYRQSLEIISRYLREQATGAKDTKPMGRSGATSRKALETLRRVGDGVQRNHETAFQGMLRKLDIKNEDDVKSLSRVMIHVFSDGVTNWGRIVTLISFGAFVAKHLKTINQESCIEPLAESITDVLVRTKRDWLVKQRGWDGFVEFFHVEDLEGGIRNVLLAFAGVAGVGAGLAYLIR
# procedure details: Inhibition of Mcl-1 (unknown origin)
pIC50: −log10 of the molar value.
readout name: pIC50

Q: Can you look up the measured pIC50 of C=CC(=O)N(c1ccc(O[C@@H]2CC[C@@H](N)C2)cc1)[C@@H](C)c1ccc(C(F)(F)F)c(C#N)c1 for me?
Ans: < 4.00

---

# assayed system: Bcl-2-related protein A1 (Homo sapiens)
# Sequence (Q16548 whole entry): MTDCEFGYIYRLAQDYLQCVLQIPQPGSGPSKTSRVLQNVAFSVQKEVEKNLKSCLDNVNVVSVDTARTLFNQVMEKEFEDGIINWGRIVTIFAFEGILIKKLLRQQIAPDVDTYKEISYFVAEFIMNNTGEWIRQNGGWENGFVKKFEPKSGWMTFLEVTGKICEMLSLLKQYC
# procedure details: Inhibition of N-terminal His6-tagged recombinant Bfl-1 (1 to 151 residues)(unknown origin) extracted from Escherichia coli BL21-Gold (DE3) using HyLite Fluor 647-labeled Bim peptide as substrate incubated for 120 mins by TR-FRET assay
Measured IC50, listed per entry.
I only need the number, in µM, no unit after it.

[[record]]
compound = "C=CC(=O)N(Cc1ccc(C(F)(F)F)cc1)c1ccc(O[C@@H]2CC[C@@H](N)C2)cc1 (racemic)"
assayed_system = "Bcl-2-related protein A1 (Homo sapiens)"
unit_symbol = "µM"
reported = 0.72

[[record]]
compound = "C=CC(=O)N(c1ccc(O[C@@H]2CC[C@@H](N)C2)cc1)[C@@H](C)c1ccc(C(F)(F)F)c(C#N)c1"
assayed_system = "Bcl-2-related protein A1 (Homo sapiens)"
unit_symbol = "µM"
reported = 0.022

[[record]]
compound = "C=CC(=O)N(Cc1ccc(OC)cc1)c1ccc(Cl)cc1"
assayed_system = "Bcl-2-related protein A1 (Homo sapiens)"
unit_symbol = "µM"
reported = 19

[[record]]
compound = "C=CC(=O)N(Cc1ccc(Cl)cc1)c1ccc(O[C@H]2CC[C@@H](N)C2)cc1 (racemic)"
assayed_system = "Bcl-2-related protein A1 (Homo sapiens)"
unit_symbol = "µM"
reported = 42

[[record]]
compound = "C=CC(=O)N(Cc1ccc(Cl)cc1)c1ccc(O[C@@H]2CC[C@@H](NC(=O)NC)C2)cc1 (racemic)"
assayed_system = "Bcl-2-related protein A1 (Homo sapiens)"
unit_symbol = "µM"
reported = 0.36

[[record]]
compound = "C=CC(=O)N(Cc1ccc(OC)cc1)c1ccccc1Cl"
assayed_system = "Bcl-2-related protein A1 (Homo sapiens)"
unit_symbol = "µM"
reported = 29


Q: Can you look up the measured IC50 of C=CC(=O)N(Cc1ccc(Cl)cc1)c1ccc(F)cc1 for me?
Ans: 5.1

Q: Can you look up the measured IC50 of C=CC(=O)N(Cc1ccc(C#N)c(Cl)c1)c1ccc(O[C@@H]2CC[C@@H](N)C2)cc1 (racemic) for me?
Ans: 0.55

Q: Can you look up the measured IC50 of C=CC(=O)N(Cc1ccc(Cl)cc1)c1ccc(O[C@@H]2CC[C@@H](N)C2)cc1 for me?
Ans: 0.34
